// data source = the supplement of paper PMC10567573

B1: TMEM106C (parent)
chain: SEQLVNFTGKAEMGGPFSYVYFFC

Variants of: B1
EXPERIMENT_DESCRIPTION: protein stability index of a GFP-peptide fusion (GPS, HEK-293T) (PSI 1-6); higher = more stable;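 also: lentivirally expressed fusions sorted by FACS into six bins by GFP to DsRed ratio, PSI derived from sequencing read proportions per bin multiplied by bin number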
DETAILS: c terminus: a fixed tail appended
MEASURED_ATTRIBUTE: protein stability index
Number, no unit, nothing else.

Below, 5 variants whose answers are already recorded.
- SEQUENCE_INPUT: "SEQLVNFTGKAEMGGPFSYVYVFC"
  protein stability index: 3.27
- SEQUENCE_INPUT: "SEQLVNFTGKAEMGGPFSPVYFFC"
  protein stability index: 1.74
- SEQUENCE_INPUT: "SELLVNFTGKAEMGGPFSYVYFFC"
  protein stability index: 3.56
- SEQUENCE_INPUT: "SEQLVNCTGKAEMGGPFSYVYFFC"
  protein stability index: 3.4
- SEQUENCE_INPUT: "SEQLVNFTGKAEMGGPFSYAYFFC"
  protein stability index: 2.9

Asked: What does the record list as protein stability index for SEQLVNFTGKAMMGGPFSYVYFFC ?
Given back: 3.74

Asked: What does the record list as protein stability index for SEQQVNFTGKAEMGGPFSYVYFFC ?
Given back: 1.93

Asked: What does the record list as protein stability index for SEQLVNFTGKAEMGGPFVYVYFFC ?
Given back: 4.08

Asked: What does the record list as protein stability index for SEQLVNGTGKAEMGGPFSYVYFFC ?
Given back: 1.68
